- experimental_target: T1, human TMEM106B (human, UniProt Q9NUM4 2-274)
- T1 construct: full-length, transiently expressed on HEK293 cells, or natively expressed on HeLa, U251 and A549 cells (the cell is named under assay); also the source of the Pepscan peptides; also called huTMEM106B; huTMEM
- procedure_summary: FACS HEK+huTMEM 0.1 ug/ml (2nd column so headed);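 also: flow cytometry binding of purified anti-TMEM106B mouse IgG to HEK293 cells transiently transfected with TMEM106B, read as median fluorescence intensity on live (propidium iodide-negative) cells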
As shown below, each of these binders has a reported MFI value.

Consider the reported MFI for these binders:
[
  {
    "binder": "TM-45 (antibody, V domains shown) VH: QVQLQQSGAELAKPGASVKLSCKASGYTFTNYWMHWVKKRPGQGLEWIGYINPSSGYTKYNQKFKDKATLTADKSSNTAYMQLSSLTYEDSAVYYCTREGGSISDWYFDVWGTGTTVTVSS VL: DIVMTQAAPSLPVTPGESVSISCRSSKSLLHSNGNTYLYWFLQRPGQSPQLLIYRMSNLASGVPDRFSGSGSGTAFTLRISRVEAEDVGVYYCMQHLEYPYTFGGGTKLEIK",
    "quantity_name": "MFI",
    "test_result": "2500 MFI"
  },
  {
    "binder": "TM-21 (antibody, V domains shown) VH: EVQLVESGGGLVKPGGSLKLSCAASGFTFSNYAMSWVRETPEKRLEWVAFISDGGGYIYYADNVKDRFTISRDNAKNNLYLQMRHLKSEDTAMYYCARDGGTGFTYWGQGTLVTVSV VL: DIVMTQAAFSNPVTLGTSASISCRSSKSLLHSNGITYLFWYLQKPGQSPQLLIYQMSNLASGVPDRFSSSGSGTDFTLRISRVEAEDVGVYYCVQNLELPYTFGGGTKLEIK",
    "quantity_name": "MFI",
    "test_result": "2350 MFI"
  },
  {
    "binder": "TM-1 (antibody, V domains shown) VH: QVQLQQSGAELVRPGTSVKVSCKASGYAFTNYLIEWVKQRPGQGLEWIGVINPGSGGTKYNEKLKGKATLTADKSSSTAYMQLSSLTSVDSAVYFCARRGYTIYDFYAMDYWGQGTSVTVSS VL: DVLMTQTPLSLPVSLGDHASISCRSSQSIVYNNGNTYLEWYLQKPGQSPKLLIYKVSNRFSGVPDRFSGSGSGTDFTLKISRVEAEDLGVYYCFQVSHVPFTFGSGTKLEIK",
    "quantity_name": "MFI",
    "test_result": "655 MFI"
  }
]

For the next question, use this binder.
Summary for this binder, TM-9 (antibody, V domains shown) VH: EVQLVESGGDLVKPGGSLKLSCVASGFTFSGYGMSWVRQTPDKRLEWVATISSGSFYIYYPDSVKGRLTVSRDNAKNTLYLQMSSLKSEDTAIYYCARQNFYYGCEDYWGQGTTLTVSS VL: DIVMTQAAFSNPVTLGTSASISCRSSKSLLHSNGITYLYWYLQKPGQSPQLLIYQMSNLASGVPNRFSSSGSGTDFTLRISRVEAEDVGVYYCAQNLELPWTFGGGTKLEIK : MFI is 3940 MFI
